System: MS2 coat protein
Test: apparent KD of MS2 coat protein; higher = weaker reporter binding
Details: Eterna round: R107; input ligand: theophylline 2 mM
Note to self: values exactly at 50 nM are Condition met. So apparent KD of MS2 coat protein at or above 50 nM is Condition met, below is Condition not met.

1) CAGAACAUGAGGAUCACCCAUGUUAGGGAUACCAGCUCAGACAUGGGCCCUUGGCAGCUCUAUGGCUGACGAAAGUCAGCAUCUG [#16 SameState-TheophyllineA] = Condition not met

Shift focus to the following entry.
stdin: Textbook exercise: given the entry UAUCCACAUGAGGAUCACCCAUGUUAGGAAGGAGCGGUGAAUGCACCAGGUAGGUCGCCUAGCUGAGGACUGUCGAUGGAUUCGU [Exclusion - Arginine A (Freestyle 18)] , state whether its apparent KD of MS2 coat protein is greater than or equal to 50 nM.
stdout: Condition not met
